All figures here come from patent US11999727B2.

measured.on: PRMT5 (Homo sapiens, UniProt O14744)
Construct: purchased Viva (custom protein)
Sequence (O14744 whole entry): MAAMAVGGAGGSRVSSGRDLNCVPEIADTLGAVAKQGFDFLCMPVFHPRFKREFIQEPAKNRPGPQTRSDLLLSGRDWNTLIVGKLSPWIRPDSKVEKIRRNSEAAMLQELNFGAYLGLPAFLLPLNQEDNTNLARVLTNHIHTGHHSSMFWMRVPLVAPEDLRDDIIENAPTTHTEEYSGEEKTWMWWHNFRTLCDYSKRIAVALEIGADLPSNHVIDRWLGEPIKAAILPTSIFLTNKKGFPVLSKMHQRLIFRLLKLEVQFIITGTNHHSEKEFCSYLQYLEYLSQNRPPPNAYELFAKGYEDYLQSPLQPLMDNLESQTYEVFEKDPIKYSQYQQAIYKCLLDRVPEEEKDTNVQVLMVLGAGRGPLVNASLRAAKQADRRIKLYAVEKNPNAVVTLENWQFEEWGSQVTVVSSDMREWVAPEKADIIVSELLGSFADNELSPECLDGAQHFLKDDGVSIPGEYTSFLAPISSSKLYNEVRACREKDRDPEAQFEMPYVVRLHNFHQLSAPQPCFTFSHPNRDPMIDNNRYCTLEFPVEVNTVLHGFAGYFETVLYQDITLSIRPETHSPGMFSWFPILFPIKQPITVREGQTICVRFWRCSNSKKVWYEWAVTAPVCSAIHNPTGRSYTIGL
Sequence (Q9BQA1 whole entry partner): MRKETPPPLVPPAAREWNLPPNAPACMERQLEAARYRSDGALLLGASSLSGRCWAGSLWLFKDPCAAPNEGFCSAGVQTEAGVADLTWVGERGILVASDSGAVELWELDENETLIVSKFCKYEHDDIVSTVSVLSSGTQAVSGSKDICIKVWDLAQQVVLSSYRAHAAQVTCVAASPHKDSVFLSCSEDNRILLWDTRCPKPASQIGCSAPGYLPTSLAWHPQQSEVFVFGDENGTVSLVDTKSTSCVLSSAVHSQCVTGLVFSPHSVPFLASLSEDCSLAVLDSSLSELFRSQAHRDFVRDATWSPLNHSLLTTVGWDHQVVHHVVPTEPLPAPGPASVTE
test.details: PRMT5 biochemical IC50 assay with no cofactor
assay.conditions: PRMT5, no cofactor; read-out: No Cofactor/ rel IC50
The following molecules are shown together with reported IC50 values.

Examples with answers:
Cc1cncc(NC(=O)C(=O)N2C[C@H](C)CC[C@H]2c2cccc(Cl)c2)c1 (racemic) [Compound 13] : > 500 nM
COc1cccc([C@@H]2CC[C@@H](C)CN2C(=O)C(=O)Nc2cncc(C)c2)c1 (racemic) : 50 to 500 nM
CCc1cc(NC(=O)C(=O)N2C[C@@H](C)CC[C@@H]2c2ccc3sc([C@H]4CCN(C)C4)nc3c2)cnc1N (single isomer, unassigned) : < 50 nM
CC1(C)CCCC2CN(C(=O)C(=O)Nc3cncc(C(N)=O)c3)CCC21 (racemic) : 50 to 500 nM
Cc1cncc(NC(=O)C(=O)N2C[C@@H](C)CC[C@@H]2c2ccc(C)c(C)c2)c1 (single isomer, unassigned) : > 500 nM

Determine its reported IC50: CCc1cc(NC(=O)C(=O)N2C[C@@H](C)CC[C@@H]2c2ccc3sc([C@@H]4[C@@H]5CN(C)C[C@@H]54)nc3c2)cnc1N
< 50 nM

Determine its reported IC50: COc1cc([C@@H]2CC[C@@H](C)CN2C(=O)C(=O)Nc2cncc(C(N)=O)c2)ccc1Cl (racemic)
50 to 500 nM

Determine its reported IC50: Cc1cc(NC(=O)C(=O)N2CC(C)(C)CCC2c2ccccc2)cnc1N (single isomer, unassigned) [Compound 52]
50 to 500 nM

Determine its reported IC50: COc1ccc([C@@H]2CC[C@@H](C)CN2C(=O)C(=O)Nc2cncc(C(N)=O)c2)cn1 (racemic)
50 to 500 nM

Determine its reported IC50: NC(=O)c1cncc(NC(=O)C(=O)N2CCCCC2C2CCC2)c1 (stereo not drawn)
50 to 500 nM

Determine its reported IC50: NC(=O)c1cncc(NC(=O)C(=O)N2CCCC[C@@H]2c2ccccc2)c1 (single isomer, unassigned)
50 to 500 nM

Determine its reported IC50: CCc1cc(NC(=O)C(=O)N2C[C@@H](C)CC[C@@H]2c2ccc3sc(CN(CC)C(C)C)nc3c2)cnc1N
< 50 nM

Determine its reported IC50: CCc1cc(NC(=O)C(=O)N2C[C@@H](C)CC[C@@H]2c2ccn3cc(C4CCN(C)CC4)nc3c2)cnc1N
< 50 nM

Determine its reported IC50: CCc1cc(NC(=O)C(=O)N2C[C@@H](C)CC[C@@H]2c2ccc3sc(-c4ccnn4C)nc3c2)cnc1N
< 50 nM

Determine its reported IC50: Cc1cc(NC(=O)C(=O)N2C[C@H](C)CC[C@H]2c2cccnc2)cnc1N (racemic)
50 to 500 nM

Determine its reported IC50: Cc1cc(NC(=O)C(=O)N2C[C@H](C)CC[C@H]2c2cccc(C3CCN(C)CC3)c2)cnc1N (single isomer, unassigned)
> 500 nM

Determine its reported IC50: Cc1cc(NC(=O)C(=O)N2C[C@@H](C)CC[C@@H]2c2ccc3sc(C4CCN(C5COC5)CC4)nc3c2)cnc1N
< 50 nM

Determine its reported IC50: Cc1cc(NC(=O)C(=O)N2CCCCC2C2CCCC2)cnc1N (stereo not drawn)
50 to 500 nM

Determine its reported IC50: CCc1cc(NC(=O)C(=O)N2C[C@@H](C)CC[C@@H]2c2cccc(OC[C@@H]3CCCN3C)c2)cnc1N
< 50 nM

Determine its reported IC50: Cc1cc(NC(=O)C(=O)N2CCCCC2c2csc3ccccc23)cnc1N (stereo not drawn)
50 to 500 nM
